Test system: 429239-143-T-J1-PDC complex spheroid viability
assay.comment: Anticancer human tumor 429239-143-T-J1-PDC patient-derived small cell lung carcinoma cell line growth inhibition [POLQ]
study.conditions: second compound 0.316 µM; first compound 3.16 µM; hits give low values
We begin with a simple list: items and their reported viability, T/C.

>  <molecule>
Nc1ccn(C2OC(CO)C(O)C2(F)F)c(=O)n1 (stereo not given) + COC1C(OC(N)=O)C(O)C(Oc2ccc3c(O)c(NC(=O)c4ccc(O)c(CC=C(C)C)c4)c(=O)oc3c2C)OC1(C)C

>  <measure.unit>
%

>  <viability, T/C>
16.9

$$$$
>  <molecule>
COc1ccc([C@@H](O)c2cc(-c3ncnc4cc(N5CCOCC5)ccc34)c(F)cc2Cl)nn1 + COC1C(OC(N)=O)C(O)C(Oc2ccc3c(O)c(NC(=O)c4ccc(O)c(CC=C(C)C)c4)c(=O)oc3c2C)OC1(C)C

>  <measure.unit>
%

>  <viability, T/C>
60

$$$$
>  <molecule>
COc1cc2cc(C(=O)CCC(=O)O)sc2cc1OC + Cc1cccc(N(C)C(=O)C2C(O)CCN2c2nc(C)cc(C(F)(F)F)c2C#N)c1

>  <measure.unit>
%

>  <viability, T/C>
96

$$$$
>  <molecule>
O=C(c1cc(Cc2n[nH]c(=O)c3ccccc23)ccc1F)N1CCN(C(=O)C2CC2)CC1 + Nc1ccc(C#CCN(C(=O)Cc2ncc(C(F)(F)F)cc2C(F)(F)F)c2ccc(F)cc2)nn1

>  <measure.unit>
%

>  <viability, T/C>
65.8

$$$$
>  <molecule>
COc1cccc2c1C(=O)c1c(O)c3c(c(O)c1C2=O)CC(O)(C(=O)CO)CC3OC1CC(N)C(O)C(C)O1 (stereo not given) + COC1C(OC(N)=O)C(O)C(Oc2ccc3c(O)c(NC(=O)c4ccc(O)c(CC=C(C)C)c4)c(=O)oc3c2C)OC1(C)C

>  <measure.unit>
%

>  <viability, T/C>
0.12

$$$$

* * *

Test system: 429239-143-T-J1-PDC complex spheroid viability
assay.comment: Anticancer human tumor 429239-143-T-J1-PDC cell line growth inhibition [POLQ];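 further: luminescence signal used as surrogate measure of viable cells; spheroids exposed to compounds for seven days before readout; 100% = DMSO vehicle control viability as luminescence relative to vehicle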
study.conditions: second compound 1 µM; first compound 0.316 µM; hits give low values

>  <molecule>
COc1cccc2c1C(=O)c1c(O)c3c(c(O)c1C2=O)CC(O)(C(=O)CO)CC3OC1CC(N)C(O)C(C)O1 (stereo not given) + Nc1ccc(C#CCN(C(=O)Cc2ncc(C(F)(F)F)cc2C(F)(F)F)c2ccc(F)cc2)nn1

>  <measure.unit>
%

>  <viability, T/C>
5.31

$$$$
>  <molecule>
COc1cccc(OCCCN)c1-c1cc(Nc2cnc(C#N)cn2)n[nH]1 + Nc1ccc(C#CCN(C(=O)Cc2ncc(C(F)(F)F)cc2C(F)(F)F)c2ccc(F)cc2)nn1

>  <measure.unit>
%

>  <viability, T/C>
40.3

$$$$
>  <molecule>
CCc1cc2c(N3CCc4c(cc(Cn5ccnc5)cc4-c4cn(C)nc4C(F)(F)F)C3=O)ccnc2c(OC)n1 + Nc1ccc(C#CCN(C(=O)Cc2ncc(C(F)(F)F)cc2C(F)(F)F)c2ccc(F)cc2)nn1

>  <measure.unit>
%

>  <viability, T/C>
94.4

$$$$
>  <molecule>
CC1COCCN1c1cc(-c2ccnn2C)c2ccnc(-c3ccn[nH]3)c2n1 (stereo not given) + Cc1cccc(N(C)C(=O)C2C(O)CCN2c2nc(C)cc(C(F)(F)F)c2C#N)c1

>  <measure.unit>
%

>  <viability, T/C>
28.4

$$$$
>  <molecule>
O=C(c1cc(Cc2n[nH]c(=O)c3ccccc23)ccc1F)N1CCN(C(=O)C2CC2)CC1 + Nc1ccc(C#CCN(C(=O)Cc2ncc(C(F)(F)F)cc2C(F)(F)F)c2ccc(F)cc2)nn1

>  <measure.unit>
%

>  <viability, T/C>
88.5

$$$$

Data provenance: PubChem BioAssay AID1963845
